Assay: Caco-2 assay (permeability PappAB, PappBA, efflux ratio)
Type: in vitro ADME
Conditions: human, Caco-2; efflux ratio PappBA/PappAB; 10 μM test compound, pH 7.4; read-out: Caco ER
QUANTITY: efflux ratio at 90 min, 10 μM

| MOLECULE | efflux ratio at 90 min, 10 μM |
| --- | --- |
| COC(=O)c1ccc(-c2cc(O[C@@H](C)[C@@H]3CCCN3C)nc(-c3noc4c3CCC[C@@]43CCCc4sc(N)c(C#N)c43)n2)o1 [II-114] | 0.9 |

a = C[C@H](Oc1cc(-n2ccc(-c3ccccn3)n2)nc(-c2noc3c2CCC[C@@]32CCCc3sc(N)c(C#N)c32)n1)[C@@H]1CCCN1C [II-119]
b = C[C@H](Oc1cc(-c2ccn(C)n2)nc(-c2noc3c2CCC[C@@]32CCCc3sc(N)c(C#N)c32)n1)[C@@H]1C[C@@H](F)CN1C [II-27]
[Q] Select one: a or b . Criterion: greater recorded efflux ratio at 90 min, 10 μM. Lab log: write the label of the selected item as the result.
[A] a
(a: 1.1, b: 0.7)

----------
Experiment: Solubility measurement (DMSO solution method), McIlvaine buffer pH 4.5 or 6.8
Format: physicochemical
Conditions: aqueous buffer, kinetic from dmso stock; McIlvaine buffer pH 6.8; DMSO stock diluted to 250 μM; 24 h shaking at ambient temperature; read-out: solubility pH 6.8
QUANTITY: solubility at 24 h (µg/mL)

Consider the reported solubility at 24 h for these compounds:
| COMPOUND | UNITS | REPORTED VALUE |
| --- | --- | --- |
| C[C@H](Oc1cc(N2CCNC(C)(C)C2)nc(-c2noc3c2CCC[C@@]32CCCc3sc(N)c(C#N)c32)n1)[C@@H]1CCCN1C [II-32] | µg/mL | 117 |
| CO[C@H]1CCN(C)[C@@H]1[C@H](C)Oc1cc(-n2ccc(C(=O)N[C@@H]3CCOC3)n2)nc(-c2onc3c2CCC[C@@]32CCCc3sc(N)c(C#N)c32)n1 [I-53] | µg/mL | 5 |

A = C[C@H](Oc1cc(-c2ccn(Cc3ncco3)n2)nc(-c2noc3c2CCC[C@@]32CCCc3sc(N)c(C#N)c32)n1)[C@@H]1CCCN1C [II-128]
B = CC(C)NC(=O)Cc1ccn(-c2cc(O[C@@H](C)[C@@H]3CCCN3C)nc(-c3noc4c3CCC[C@@]43CCCc4sc(N)c(C#N)c43)n2)n1 [II-182]
[Q] Select one: A or B . Criterion: greater recorded solubility at 24 h. Lab log: write the label of the selected item as the result.
[A] B
(B: 86 µg/mL, A: 42 µg/mL)

----------
Target: CYP3A4 (Homo sapiens (Human), UniProt P08684)
Sequence (P08684 whole entry): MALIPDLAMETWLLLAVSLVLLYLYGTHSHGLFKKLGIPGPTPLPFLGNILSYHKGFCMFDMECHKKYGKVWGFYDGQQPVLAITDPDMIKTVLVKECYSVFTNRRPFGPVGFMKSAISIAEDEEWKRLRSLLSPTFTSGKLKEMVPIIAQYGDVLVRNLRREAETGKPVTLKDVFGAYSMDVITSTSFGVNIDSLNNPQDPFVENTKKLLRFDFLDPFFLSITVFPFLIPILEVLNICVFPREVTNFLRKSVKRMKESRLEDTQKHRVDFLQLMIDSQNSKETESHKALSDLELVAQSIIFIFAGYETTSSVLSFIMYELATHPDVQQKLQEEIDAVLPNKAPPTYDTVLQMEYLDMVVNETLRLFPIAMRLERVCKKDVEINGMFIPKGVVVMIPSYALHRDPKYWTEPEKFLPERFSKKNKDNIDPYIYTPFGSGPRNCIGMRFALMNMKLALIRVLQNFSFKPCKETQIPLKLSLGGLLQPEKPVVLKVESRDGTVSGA
Assay: Mechanism based inhibition of CYP3A4 assay (MBI 3A4)
Assay type: in vitro ADME
Details: hydroxy-midazolam formation after 30 min vs 0 min preincubation, 25 uM, human liver microsomes
QUANTITY: MBI 3A4 (%)

Consider the reported MBI 3A4 for these compounds:
| COMPOUND | TESTED TARGET | QUANTITY | REPORTED VALUE |
| --- | --- | --- | --- |
| CNC(=O)c1ccn(-c2cc(O[C@@H](C)[C@@H]3CCCN3C)nc(-c3noc4c3CCC[C@@]43CCCc4sc(N)c(C#N)c43)n2)n1 | CYP3A4 (Homo sapiens (Human), UniProt P08684) | MBI 3A4 | 63 |
| C[C@H](Oc1cc(-c2ccn(C)n2)nc(-c2noc3c2CCC[C@@]32CCCc3sc(N)c(C#N)c32)n1)[C@@H]1C[C@H](F)CN1C | CYP3A4 (Homo sapiens (Human), UniProt P08684) | MBI 3A4 | 60 |
| CO[C@@H]1C[C@@H]([C@H](C)Oc2cc(-c3ccn(C)n3)nc(-c3noc4c3CCC[C@@]43CCCc4sc(N)c(C#N)c43)n2)N(C)C1 | CYP3A4 (Homo sapiens (Human), UniProt P08684) | MBI 3A4 | 68 |
| C[C@H](Oc1cc(C2COCCO2)nc(-c2noc3c2CCC[C@@]32CCCc3sc(N)c(C#N)c32)n1)[C@@H]1CCCN1C (stereo partly drawn) | CYP3A4 (Homo sapiens (Human), UniProt P08684) | MBI 3A4 | 68 |

a = C[C@H](Oc1nc(-c2onc3c2CCC[C@@]32CCCc3sc(N)c(C#N)c32)cc(N2CCNC3(CC3)C2)n1)[C@@H]1CCCN1C
b = C[C@H](Oc1cc(-n2cc(-c3cncs3)nn2)nc(-c2noc3c2CCC[C@@]32CCCc3sc(N)c(C#N)c32)n1)[C@@H]1CCCN1C
[Q] Select one: a or b . Criterion: greater recorded MBI 3A4. Lab log: write the label of the selected item as the result.
[A] b

----------
Tested on: KRAS G12C-dependent Ba/F3 cells
Experiment: Ba/F3 proliferation assay, KRAS G12C
Type: cell-based
Conditions: Mus musculus, BaF3, 72 h, AlamarBlue
QUANTITY: IC50 (nM)

| ENTRY SMILES | QUANTITY | UNITS | REPORTED VALUE |
| --- | --- | --- | --- |
| C[C@H](Oc1cc(-c2cn(C3COC3)nn2)nc(-c2noc3c2CCC[C@@]32CCCc3sc(N)c(C#N)c32)n1)[C@@H]1CCCN1C | IC50 | nM | 19 |

a = C[C@H](Oc1cc(N2CCN3CCC[C@]3(C)C2)nc(-c2noc3c2CCC[C@@]32CCCc3sc(N)c(C#N)c32)n1)[C@@H]1CCCN1C
b = C[C@H](Oc1cc(-n2ccc(C(=O)N[C@@H]3CCOC3)n2)nc(-c2noc3c2CCC[C@@]32CCCc3sc(N)c(C#N)c32)n1)[C@@H]1CCCN1C
[Q] // select label with min value of measured IC50 from [ a , b ] Lab log: write the label of the selected item as the result.
[A] b

----------
Molecular target: KRAS (G12C)::SOS1 (Homo sapiens (Human), UniProt P01116, C118S/C51S/C80L/G12C)
Sequence (P01116 other isoform, or with tags, fused parts or gaps G12C/C51S/C80L/C118S): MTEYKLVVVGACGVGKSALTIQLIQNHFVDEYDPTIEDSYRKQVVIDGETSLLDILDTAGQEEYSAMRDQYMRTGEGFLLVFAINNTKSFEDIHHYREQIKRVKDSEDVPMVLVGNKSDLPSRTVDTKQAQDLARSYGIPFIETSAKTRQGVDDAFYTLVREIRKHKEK
Experiment: KRAS::SOS1 AlphaScreen binding assay, KRAS G12C
pIC50: −log10 of the molar value.
QUANTITY: pIC50

| ENTRY SMILES | pIC50 |
| --- | --- |
| C[C@H](Oc1cc(C2=CCOCC2)nc(-c2noc3c2CCC[C@@]32CCCc3sc(N)c(C#N)c32)n1)[C@@H]1CCCN1C | 8.70 |
| CC(=O)N1CC=C(c2cc(O[C@@H](C)[C@@H]3CCCN3C)nc(-c3noc4c3CCC[C@@]43CCCc4sc(N)c(C#N)c43)n2)CC1 | 8.52 |
| C[C@H](Oc1cc(-c2ccn(C)n2)nc(-c2onc3c2CCC[C@@]32CCCc3sc(N)c(C#N)c32)n1)[C@@H]1CCCN1C | 8.70 |

A = C[C@H](Oc1cc(N2CCNCC2)nc(-c2noc3c2CCC[C@@]32CCCc3sc(N)c(C#N)c32)n1)[C@@H]1CCCN1C
B = C[C@H](Oc1cc(N2C[C@H](C)N(C)[C@@H](C)C2)nc(-c2onc3c2CCC[C@@]32CCCc3sc(N)c(C#N)c32)n1)[C@@H]1CCCN1C
[Q] Select one: A or B . Criterion: greater recorded pIC50. Lab log: write the label of the selected item as the result.
[A] A
(A: 8.52, B: 8.22)

1 = C[C@H](Oc1cc(-n2cncn2)nc(-c2onc3c2CCC[C@@]32CCCc3sc(N)c(C#N)c32)n1)[C@@H]1CCCN1C
2 = CO[C@H]1CCN(C)[C@@H]1[C@H](C)Oc1cc(-n2ccc(C(=O)N[C@H]3CCOC3)n2)nc(-c2noc3c2CCC[C@@]32CCCc3sc(N)c(C#N)c32)n1
3 = C[C@H](Oc1cc(-c2ccn(C3COC3)n2)nc(-c2noc3c2CCC[C@@]32CCCc3sc(N)c(C#N)c32)n1)[C@@H]1C[C@H](F)CN1C
[Q] Ascending sort, pIC50. Output the labels ranked as instructed.
[A] 3, 1, 2

----------
Test system: AsPC-1 cells
Assay: AsPC-1 CTG proliferation assay (120 h) (pancreatic cancer, G12D)
Type: cell-based
Settings: Homo sapiens, ASPC1
QUANTITY: IC50 (nM)

| COMPOUND | REPORTED VALUE |
| --- | --- |
| C[C@H](Oc1cc(N2CCNC[C@@]23CCOC3)nc(-c2onc3c2CCC[C@@]32CCCc3sc(N)c(C#N)c32)n1)[C@@H]1CCCN1C [I-13] | 1550 |
| C[C@H](Oc1cc(-n2cncc3ccnc2-3)nc(-c2noc3c2CCC[C@@]32CCCc3sc(N)c(C#N)c32)n1)[C@@H]1CCCN1C [II-105] | 1320 |
| C[C@H](Oc1cc(-c2ccn(-c3ccsc3)n2)nc(-c2noc3c2CCC[C@@]32CCCc3sc(N)c(C#N)c32)n1)[C@@H]1CCCN1C [II-84] | 3060 |
| C[C@H](Oc1cc(-n2ccnc2Cl)nc(-c2noc3c2CCC[C@@]32CCCc3sc(N)c(C#N)c32)n1)[C@@H]1CCCN1C [II-93] | 4640 |

A = CO[C@H]1CCN(C)[C@@H]1[C@H](C)Oc1cc(-n2ccc(C(N)=O)n2)nc(-c2noc3c2CCC[C@@]32CCCc3sc(N)c(C#N)c32)n1 [II-201]
B = C[C@H](Oc1cc(-n2nccn2)nc(-c2onc3c2CCC[C@@]32CCCc3sc(N)c(C#N)c32)n1)[C@@H]1CCCN1C [I-29]
[Q] Select one: A or B . Criterion: greater recorded IC50. Lab log: write the label of the selected item as the result.
[A] B

I = C[C@H](Oc1cc(-c2ccn(C)n2)nc(-c2noc3c2CCC[C@@]32CCCc3sc(N)c(C#N)c32)n1)[C@@H]1C[C@H](F)CN1C [II-144]
II = C[C@H](Oc1cc(-c2cnsc2)nc(-c2onc3c2CCC[C@@]32CCCc3sc(N)c(C#N)c32)n1)[C@@H]1CCCN1C [I-27]
III = Cc1cn(C)nc1-c1cc(O[C@@H](C)[C@@H]2CCCN2C)nc(-c2noc3c2CCC[C@@]32CCCc3sc(N)c(C#N)c32)n1 [II-68]
[Q] Ascending sort, IC50. Output the labels ranked as instructed.
[A] II, III, I
(II: 2120 nM, III: 3240 nM, I: 7100 nM)

P = C[C@H](Oc1cc(-n2ccc(-c3cn(CC4(C)COC4)nn3)n2)nc(-c2noc3c2CCC[C@@]32CCCc3sc(N)c(C#N)c32)n1)[C@@H]1CCCN1C [II-213]
Q = C[C@H](Oc1cc(N2CCNC3(CC3)C2)nc(-c2noc3c2CCC[C@@]32CCCc3sc(N)c(C#N)c32)n1)[C@@H]1CCCN1C [II-54]
R = C[C@H](Oc1nc(-c2noc3c2CCC[C@@]32CCCc3sc(N)c(C#N)c32)nc(N2CCN(C)C3(CC3)C2)c1Cl)[C@@H]1C[C@@H](F)CN1C [II-176]
[Q] Rank order required: IC50, descending. Output the labels ranked as instructed.
[A] R, P, Q
(R: 851 nM, P: 275 nM, Q: 67 nM)

a = C[C@H](Oc1cc(N2CCNC3(COC3)C2)nc(-c2onc3c2CCC[C@@]32CCCc3sc(N)c(C#N)c32)n1)[C@@H]1CCCN1C [I-4]
b = C[C@H](Oc1cc(N2CCNC[C@]23CCOC3)nc(-c2onc3c2CCC[C@@]32CCCc3sc(N)c(C#N)c32)n1)[C@@H]1CCCN1C [I-12]
c = C[C@H](Oc1cc(-c2ccc(N)nc2)nc(-c2noc3c2CCC[C@@]32CCCc3sc(N)c(C#N)c32)n1)[C@@H]1CCCN1C [II-101]
d = C[C@H](Oc1cc(-n2ccnn2)nc(-c2onc3c2CCC[C@@]32CCCc3sc(N)c(C#N)c32)n1)[C@@H]1CCCN1C [I-32]
e = C[C@H](Oc1cc(N2C[C@H](C)N(C)[C@@H](C)C2)nc(-c2onc3c2CCC[C@@]32CCCc3sc(N)c(C#N)c32)n1)[C@@H]1CCCN1C [I-43]
[Q] Rank order required: IC50, descending. Output the labels ranked as instructed.
[A] d, c, e, b, a
(d: 4440 nM, c: 2990 nM, e: 1000 nM, b: 235 nM, a: 64 nM)
